tested on: SK-OV-3 ovarian; assay: NCI tumour cell line growth inhibition, 48 h
# reported TGI; entries follow
readout.type: TGI (µM)

INSERT INTO assay_data (compound, qualifier_operator, observed_measurement) VALUES
  ('O=C1/C(=C\c2cccc(Oc3ccccc3)c2)SC(c2ccccc2)N1Cc1ccccc1 (configuration not stated)', '=', 71.9),
  ('COc1ccc(-n2nnc3c(C#N)c(C)c(-c4ccccc4)n3c2=O)cc1', '>', 22.4),
  ('CCOc1cc(CCNC)c2c(ccc3ccc(OC)c(O)c32)c1OC', '=', 27.5),
  ('CC/C(=N/O)C(C)C(=O)CCC(=O)Nc1ccc(Cl)cc1 (configuration not stated)', '>', 100),
  ('O=C(O)C(C(F)(F)F)C(F)(F)F (tested in a mixture with another compound)', '>', 100),
  ('CC1(C)CC(C(=O)OCCCCCCCCCCC[P+](c2ccccc2)(c2ccccc2)c2ccccc2)C(C)(C)N1O (configuration not stated)', '=', 0.711),
  ('COc1ccccc1CC1(O)OC(=O)c2ccccc21 (configuration not stated)', '>', 100),
  ('CCOc1cc2cnc3c4cc(OC)c(OC)cc4ccc3c2cc1OC', '>', 100),
  ('COC(=O)CCC(=O)Nc1cc(C)ccc1C', '>', 100),
  ('CC(C)C(=O)/C=C/c1ccc(Cl)cc1Cl', '=', 33.7),
  ('CC(C)(C)COS(=O)OCC(C)(C)C', '>', 100),
  ('CCC1C[N+]2=C(c3cc(OC)c(OC)cc3CC2)c2c1cc1n2CCc2cc(OC)c(OC)cc2-1 (configuration not stated)', '=', 37.5),
  ('Nc1ccccc1-n1c2c(c3ccccc3c1=O)C(=O)c1ccccc1-2', '=', 21.5),
  ('Oc1ccc(Cl)cc1C1=Nn2c(COc3ccc4c(c3)CCCC4)nnc2SC1', '=', 42.4),
  ('O=C(c1nc2ccc(Cl)cc2[nH]c1=O)C(O)c1cccc([N+](=O)[O-])c1 (configuration not stated)', '>', 100),
  ('CCC12CN(C(=O)OC)C3C(Br)C1CCC(=O)C32 (configuration not stated)', '>', 100),
  ('CNc1ccc(Cl)cc1C(=O)N1CCC[C@H]1CO', '>', 100),
  ('O=C1C2CCCCC2C(=O)N1n1c(Cc2ccccc2)n[nH]c1=O (configuration not stated)', '>', 100),
  ('O=C(NN1CCCCC1)c1cc2cc(CCl)ccc2oc1=O', '=', 42.6),
  ('O=C(Oc1c(Cl)c(Cl)c(Cl)c(Cl)c1Cl)C1CCCN1C(=O)OCc1ccccc1 (configuration not stated)', '=', 9.07),
  ('CCOC(=O)C1=C(Nc2cccc3ccccc23)OCC1=O', '>', 100),
  ('C=CC(=O)OCCCS(=O)(=O)[O-].C=CC(=O)OCCCS(=O)(=O)[O-].NC1CCCCC1N.[Pt+4]', '>', 25);

* * *

test system: NCI-H23 lung; assay: NCI tumour cell line growth inhibition, 48 h
readout.type: TGI

INSERT INTO assay_data (compound, observed_measurement) VALUES
  ('CN1CCN(c2ccc3nc(-c4ccc5nc(CCCc6ccc(N(CCCl)CCCl)cc6)[nH]c5c4)[nH]c3c2)CC1', '> 100 µM'),
  ('CN1CCN(c2ccc(NC(=O)c3cncnc3Nc3ccc4c(ccn4Cc4cccc(F)c4)c3)cc2)CC1', '9.14 µM'),
  ('COc1ccc2c3c1OC1C4(CCC5C(C2)N(CC2CC2)CCC351)OCCO4 (stereo not given)', '> 100 µM'),
  ('O[C@]12c3ccccc3C1CCCC2N1CCOCC1 (stereo not given in full)', '> 100 µM'),
  ('Cc1cc(=O)[nH]c(S(=O)(=O)NC(=O)Nc2cccc(Cl)c2)n1', '> 100 µM'),
  ('CC(CCCCNC(=O)OC(C)(C)C)NC(=O)NC(C)CCCCNC(=O)OC(C)(C)C (stereo not given)', '> 100 µM'),
  ('COc1cc(-c2cn(-c3ccc(F)cc3)c(=O)[nH]2)cc(OC)c1OC', '> 100 µM'),
  ('CN1C(CC(O)c2ccccc2)CCCC1CC(O)(c1ccccc1)c1ccccc1 (stereo not given)', '35.8 µM'),
  ('CS(=O)(=O)Nc1ccc(NCc2cnc3ccc4[nH]cccc4c23)cc1', '59.6 µM'),
  ('O=c1[nH]nc(Cc2ccc(Cl)cc2)n1CCO', '> 100 µM');

The values you see were collected from PubChem BioAssay (NCI).
